Molecular target: hLRRC33-proTGFβ1 in the cell-based potency assay (human, UniProt P01137 30-390; Q86YC3 19-651)
Sequence (P01137 30-390 limits assumed, chain 1 of 2): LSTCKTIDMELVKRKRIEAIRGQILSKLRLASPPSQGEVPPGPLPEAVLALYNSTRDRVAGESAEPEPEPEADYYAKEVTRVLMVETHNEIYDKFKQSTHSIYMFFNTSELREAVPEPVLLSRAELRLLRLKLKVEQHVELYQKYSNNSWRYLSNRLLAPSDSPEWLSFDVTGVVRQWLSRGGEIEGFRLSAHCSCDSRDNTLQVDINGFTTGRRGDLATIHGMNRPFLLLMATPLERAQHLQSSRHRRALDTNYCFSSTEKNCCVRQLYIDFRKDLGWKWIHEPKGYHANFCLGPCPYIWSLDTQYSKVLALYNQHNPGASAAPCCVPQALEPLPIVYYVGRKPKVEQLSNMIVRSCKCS
Sequence (Q86YC3 other isoform, or with tags, fused parts or gaps limits assumed, chain 2 of 2): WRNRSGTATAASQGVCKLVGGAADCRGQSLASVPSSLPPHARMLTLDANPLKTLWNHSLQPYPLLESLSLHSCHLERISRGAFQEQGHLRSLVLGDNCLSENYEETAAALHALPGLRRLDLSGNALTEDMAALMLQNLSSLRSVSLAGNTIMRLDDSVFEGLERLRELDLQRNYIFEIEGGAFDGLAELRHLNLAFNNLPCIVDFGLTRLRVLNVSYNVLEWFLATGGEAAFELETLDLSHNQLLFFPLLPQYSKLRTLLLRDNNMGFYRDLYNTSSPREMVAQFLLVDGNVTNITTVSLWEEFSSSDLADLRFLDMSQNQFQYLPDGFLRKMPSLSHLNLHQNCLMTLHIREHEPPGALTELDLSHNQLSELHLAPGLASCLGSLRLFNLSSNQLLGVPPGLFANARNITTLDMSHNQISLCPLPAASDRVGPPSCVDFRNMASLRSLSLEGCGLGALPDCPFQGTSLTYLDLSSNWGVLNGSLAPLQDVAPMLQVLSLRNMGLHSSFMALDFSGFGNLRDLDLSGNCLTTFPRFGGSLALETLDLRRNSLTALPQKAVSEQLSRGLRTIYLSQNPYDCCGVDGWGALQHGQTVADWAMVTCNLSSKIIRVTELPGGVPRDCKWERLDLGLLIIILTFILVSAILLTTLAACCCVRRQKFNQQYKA
Assay: cell-based or functional assay
outcomeMeasure: IC50, reporter cell assay of TGFβ1 activation (nM)
Response body: numeric value in nM, unit text excluded.

As a guide, the following entries are already answered.
Ab26 (antibody, V domains shown) VH: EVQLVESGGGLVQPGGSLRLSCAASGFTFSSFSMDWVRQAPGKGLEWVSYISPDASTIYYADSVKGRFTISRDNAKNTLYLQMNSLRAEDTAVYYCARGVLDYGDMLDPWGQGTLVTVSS VL: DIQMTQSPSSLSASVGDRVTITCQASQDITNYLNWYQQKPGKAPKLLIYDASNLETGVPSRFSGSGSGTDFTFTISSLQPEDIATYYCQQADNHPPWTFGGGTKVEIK    0.3
Ab5 (antibody, V domains shown) VH: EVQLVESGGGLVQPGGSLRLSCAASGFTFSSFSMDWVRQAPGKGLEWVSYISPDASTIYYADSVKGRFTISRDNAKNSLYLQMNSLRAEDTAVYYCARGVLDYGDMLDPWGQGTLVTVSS VL: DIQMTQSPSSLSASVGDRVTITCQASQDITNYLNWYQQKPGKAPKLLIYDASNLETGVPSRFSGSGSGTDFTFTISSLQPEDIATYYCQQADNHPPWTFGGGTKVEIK    0.6
Ab25 (antibody, V domains shown) VH: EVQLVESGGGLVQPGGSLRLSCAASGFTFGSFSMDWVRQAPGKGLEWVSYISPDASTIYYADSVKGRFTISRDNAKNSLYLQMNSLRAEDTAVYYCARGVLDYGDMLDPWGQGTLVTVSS VL: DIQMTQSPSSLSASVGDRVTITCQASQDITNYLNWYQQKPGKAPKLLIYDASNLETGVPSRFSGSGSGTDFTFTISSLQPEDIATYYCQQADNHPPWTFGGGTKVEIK    0.7

If you can, please state the reported IC50, reporter cell assay of TGFβ1 activation value of Ab21 (antibody, V domains shown) VH: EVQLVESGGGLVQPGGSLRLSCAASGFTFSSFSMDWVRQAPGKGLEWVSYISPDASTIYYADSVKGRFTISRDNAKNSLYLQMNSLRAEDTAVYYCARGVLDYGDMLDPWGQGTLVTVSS VL: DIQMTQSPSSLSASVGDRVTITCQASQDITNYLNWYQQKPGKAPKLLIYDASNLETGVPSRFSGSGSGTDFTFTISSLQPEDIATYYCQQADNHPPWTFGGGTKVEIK . 0.6
